- Test system: Alopecurus myosuroides (ALOMY)
- ASSAY NOTES: Example A post-emergence herbicidal glasshouse test
- Format: in vivo
- SETTINGS: 312 h, evaluated after 13 days, 100=total damage to plant, 0=no damage
ATTRIBUTE MEASURED: pest or weed control at 250 g/ha
Report as: number unit

COMPOUND	pest or weed control at 250 g/ha
Cc1ccc(-c2ccc(Cl)cc2)cc1C1=C(O)[C@H]2CC[C@H](C2)C1=O	80%
CCc1cc(-c2ccc(Cl)cc2)ccc1C1=C(OC(C)=O)[C@@H]2CC[C@@H](C2)C1=O	90%
CCc1ccc(-c2ccc(Cl)cc2)cc1C1=C(O)[C@H]2CC[C@H](C2)C1=O	90%

Could you now consider this next compound?
Alopecurus myosuroides (ALOMY) pest or weed control at 250 g/ha of CCc1ccc(-c2ccc(Cl)cc2)cc1C1=C(O)C2CC(C1=O)C2(C)C (stereo not shown) is 70%

* * *

- System: Alopecurus myosuroides (ALOMY)
- ASSAY NOTES: Example B post-emergence herbicidal greenhouse test
- Format: in vivo
- SETTINGS: 360 h, evaluated after 15 days, 100=total damage to plant, 0=no damage
- Protocol: Seeds of a variety of test species were sown in standard soil in pots. […] The test plants were then grown in a greenhouse under optimum conditions until, 15 days later for post-emergence and 20 days for pre-emergence, the test was evaluated (100=total damage to plant; 0=no damage to plant). […]
ATTRIBUTE MEASURED: pest or weed control at 125 g/ha (%)
Give bare numbers, in %.

Below: 3 compounds and their reported pest or weed control at 125 g/ha.
COMPOUND	pest or weed control at 125 g/ha (%)
Cc1ccc(-c2ccc(F)c(Cl)c2)cc1C1=C(O)[C@H]2CC[C@H](C2)C1=O (single isomer, unassigned) [Compound T29]	30
CCc1ccc(-c2ccc(Cl)c(Cl)c2)cc1C1=C(O)[C@H]2CC[C@H](C2)C1=O (single isomer, unassigned) [Compound T35]	0
CC(=O)OC1=C(c2c(C)cc(-c3ccccc3)cc2C)C(=O)[C@@H]2CC[C@H]1C2 [Compound P1]	20

Could you now consider this next compound?
Briefly, pest or weed control at 125 g/ha measured for CCc1ccc(-c2ccc(Cl)c(C#N)c2)cc1C1=C(O)[C@H]2CC[C@H](C2)C1=O (single isomer, unassigned) [Compound T34] : 0

* * *

- System: Alopecurus myosuroides (ALOMY)
- ASSAY NOTES: Example B pre-emergence herbicidal greenhouse test
- Assay type: in vivo
- SETTINGS: 480 h, evaluated after 20 days, 100=total damage to plant, 0=no damage
ATTRIBUTE MEASURED: pest or weed control at 250 g/ha (%)
One number for each entry, in %.

COMPOUND	VALUE MEASURED
CCc1ccc(-c2ccc(Cl)cc2Cl)cc1C1=C(OC(C)=O)[C@H]2CC[C@H](C2)C1=O (single isomer, unassigned)	70
CC(=O)OC1=C(c2c(C)cc(-c3ccccc3)cc2C)C(=O)[C@@H]2CC[C@H]1C2 [Compound P1]	30
CCc1ccc(-c2ccc(Cl)cc2)cc1C1=C(O)[C@H]2CC[C@H](C2)C1=O	100
CCc1ccc(-c2ccc(Cl)c(Cl)c2)cc1C1=C(O)[C@H]2CC[C@H](C2)C1=O (single isomer, unassigned)	10
Cc1ccc(-c2ccc(Cl)cc2C)cc1C1=C(O)[C@H]2CC[C@H](C2)C1=O (single isomer, unassigned)	0
CCc1ccc(-c2ccc(C)cc2)cc1C1=C(O)[C@H]2CC[C@H](C2)C1=O	0
Cc1ccc(-c2ccc(Cl)cc2F)cc1C1=C(O)[C@H]2CC[C@H](C2)C1=O (single isomer, unassigned)	60
Cc1ccc(-c2ccc(F)c(Cl)c2)cc1C1=C(O)[C@H]2CC[C@H](C2)C1=O (single isomer, unassigned)	10

Batch request: pest or weed control at 250 g/ha per item, same order as input.
1. Cc1ccc(-c2ccc(Cl)cc2)cc1C1=C(O)[C@H]2CC[C@H](C2)C1=O
2. CCc1cc(-c2ccc(Cl)cc2)ccc1C1=C(OC(C)=O)[C@@H]2CC[C@@H](C2)C1=O

// result
1. 80
2. 30

Batch request: pest or weed control at 250 g/ha per item, same order as input.
1. Cc1ccc(-c2ccc(Cl)c(C#N)c2)cc1C1=C(O)[C@H]2CC[C@H](C2)C1=O (single isomer, unassigned)
2. Cc1ccc(-c2cc(Cl)cc(Cl)c2)cc1C1=C(O)[C@H]2CC[C@H](C2)C1=O (single isomer, unassigned)
3. CCc1ccc(-c2ccc(Cl)cc2C)cc1C1=C(O)[C@H]2CC[C@H](C2)C1=O (single isomer, unassigned)
4. CCc1ccc(-c2ccc(Cl)cc2OC)cc1C1=C(O)[C@H]2CC[C@H](C2)C1=O (single isomer, unassigned)

// result
0
0
60
0

* * *

- Tested on: Alopecurus myosuroides (ALOMY)
- ASSAY NOTES: Example B pre-emergence herbicidal greenhouse test
- Format: in vivo
- SETTINGS: 480 h, evaluated after 20 days, 100=total damage to plant, 0=no damage
Hi there, I'd appreciate the recorded pest or weed control at 250 g/ha for every entry that follows.
Numbers only, in %.

MOLECULE	pest or weed control at 250 g/ha / %
COc1ccc(Cl)cc1-c1ccc(C)c(C2=C(O)[C@H]3CC[C@H](C3)C2=O)c1 (single isomer, unassigned) [Compound T30]	0
Cc1ccc(-c2ccc(Cl)c(Cl)c2)cc1C1=C(O)[C@H]2CC[C@H](C2)C1=O (single isomer, unassigned) [Compound T10]	50

Briefly, pest or weed control at 250 g/ha measured for Cc1ccc(-c2ccc(Cl)c(F)c2)cc1C1=C(O)[C@H]2CC[C@H](C2)C1=O (single isomer, unassigned) [Compound T31] : 70

* * *

- Test system: Alopecurus myosuroides (ALOMY)
- ASSAY NOTES: Example B post-emergence herbicidal greenhouse test
- Type: in vivo
- SETTINGS: 360 h, evaluated after 15 days, 100=total damage to plant, 0=no damage
ATTRIBUTE MEASURED: pest or weed control at 125 g/ha (%)
Give bare numbers, in %.

Below: 6 compounds and their reported pest or weed control at 125 g/ha.
COMPOUND	ATTRIBUTE MEASURED	VALUE MEASURED
CCc1ccc(-c2ccc(Cl)cc2Cl)cc1C1=C(O)[C@H]2CC[C@H](C2)C1=O	pest or weed control at 125 g/ha	60
CCc1ccc(-c2ccc(C)cc2)cc1C1=C(O)[C@H]2CC[C@H](C2)C1=O	pest or weed control at 125 g/ha	0
CCc1ccc(-c2ccc(F)cc2)cc1C1=C(O)[C@H]2CC[C@H](C2)C1=O	pest or weed control at 125 g/ha	50
CCc1ccc(-c2ccc(Cl)cc2)cc1C1=C(O)[C@H]2C=C[C@H](CC2)C1=O (single isomer, unassigned)	pest or weed control at 125 g/ha	60
Cc1ccc(-c2ccc(Cl)c(F)c2)cc1C1=C(O)[C@H]2CC[C@H](C2)C1=O (single isomer, unassigned)	pest or weed control at 125 g/ha	30
Cc1ccc(-c2ccc(Cl)c(C(F)(F)F)c2)cc1C1=C(O)[C@H]2CC[C@H](C2)C1=O (single isomer, unassigned)	pest or weed control at 125 g/ha	10

Could you now consider this next compound?
Briefly, pest or weed control at 125 g/ha measured for Cc1ccc(-c2ccc(Cl)cc2Cl)cc1C1=C(O)[C@H]2CC[C@H](C2)C1=O (single isomer, unassigned) : 0

* * *

Hi there, I'd appreciate the recorded pest or weed control at 250 g/ha for every entry that follows.
- Tested on: Echinochloa crus-galli (ECHCG)
- ASSAY NOTES: Example A pre-emergence herbicidal glasshouse test
- Type: in vivo
- SETTINGS: 312 h, Rate 250 g/ha, evaluated after 13 days, 100=total damage to plant, 0=no damage to plant
Answers are plain numbers, in %.

Below: 5 molecules and their reported pest or weed control at 250 g/ha.
MOLECULE	ASSAY TARGET	pest or weed control at 250 g/ha, %
CCc1ccc(-c2ccc(Cl)nc2)cc1C1=C(O)[C@H]2CC[C@H](C2)C1=O (single isomer, unassigned)	Echinochloa crus-galli (ECHCG)	60
Cc1cccc(-c2ccc(C)c(C3=C(O)[C@H]4CC[C@H](C4)C3=O)c2)c1 (single isomer, unassigned)	Echinochloa crus-galli (ECHCG)	0
Cc1ccc(-c2ccccc2F)cc1C1=C(O)[C@H]2CC[C@H](C2)C1=O (single isomer, unassigned)	Echinochloa crus-galli (ECHCG)	0
CCc1ccc(-c2ccc(Cl)c(F)c2)cc1C1=C(O)[C@H]2CC[C@H](C2)C1=O (single isomer, unassigned)	Echinochloa crus-galli (ECHCG)	100
Cc1ccc(-c2ccc(Cl)cc2)cc1C1=C(O)[C@H]2CC[C@H](C2)C1=O	Echinochloa crus-galli (ECHCG)	90

Batch request: pest or weed control at 250 g/ha per item, same order as input.
1. CCOc1ccc(-c2ccc(Cl)cc2)cc1C1=C(O)[C@H]2CC[C@H](C2)C1=O
2. CCc1ccc(-c2ccc(Cl)c(C(F)(F)F)c2)cc1C1=C(O)[C@H]2CC[C@H](C2)C1=O (single isomer, unassigned)
3. Cc1ccc(-c2cc(Cl)ccc2C)cc1C1=C(O)[C@H]2CC[C@H](C2)C1=O (single isomer, unassigned)

// result
0
90
0

Batch request: pest or weed control at 250 g/ha per item, same order as input.
1. Cc1ccc(-c2cc(Cl)ccc2Cl)cc1C1=C(O)[C@H]2CC[C@H](C2)C1=O (single isomer, unassigned)
2. Cc1ccc(-c2cccc(F)c2)cc1C1=C(O)[C@H]2CC[C@H](C2)C1=O (single isomer, unassigned)
3. CCc1cc(-c2ccc(Cl)cc2)cc(CC)c1C1=C(O)[C@H]2CC[C@H](C2)C1=O
4. CCc1ccc(-c2ccc(Cl)cc2Cl)cc1C1=C(O)[C@H]2C=C[C@H](CC2)C1=O
5. COc1ccc(-c2ccc(Cl)cc2Cl)cc1C1=C(O)[C@H]2CC[C@H](C2)C1=O
6. Cc1ccc(-c2cccc(C(F)(F)F)c2)cc1C1=C(O)[C@H]2CC[C@H](C2)C1=O (single isomer, unassigned)

// result
[0, 0, 100, 30, 0, 20]
